test system: tubulin; assay: Tubulin polymerization inhibition assay (Cytoskeleton kit); conditions: conc 0.01 (unit not given), 30 min, codes 522-537 run;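 further: Cell-free tubulin polymerization read by fluorescent reporter enhancement over a 30 min reaction, with the compound-free kit control taken as 100% activity and inhibition relative to it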
measure.name: Tub. enzyme inhibition assay %inhibition (%)
Give your result in % as a bare value.

Field Tub. enzyme inhibition assay %inhibition (entry Cc1nc(SCC(=O)Nc2nc(-c3ccc(Cl)cc3)cs2)sc1C(=O)/C=C/c1ccccc1 [Compound 10f] ) reads 5.23

Notebook: COc1ccc(/C=C/C(=O)c2sc(SCC(=O)Nc3nc(-c4ccc(Cl)cc4)cs3)nc2C)cc1 [Compound 10j] , Tub. enzyme inhibition assay %inhibition read as 2.01

Tub. enzyme inhibition assay %inhibition for Cc1ccc(/C=C/C(=O)c2sc(SCC(=O)Nc3nccs3)nc2C)cc1 [Compound 13d] is 6.76

Consider Cc1ccc(-c2csc(NC(=O)CSc3nc(C)c(C(=O)/C=C/c4ccccc4)s3)n2)cc1 [Compound 10k] . Its measured Tub. enzyme inhibition assay %inhibition is 0.28

Lab note: Cc1ccc(/C=C/C(=O)c2sc(SCC(=O)Nc3nc(-c4ccc(Cl)cc4)cs3)nc2C)cc1 [Compound 10i] gave Tub. enzyme inhibition assay %inhibition of 1.51

Recorded result, Cc1ccc(/C=C/C(=O)c2sc(SCC(=O)Nc3nc(-c4ccc(C)cc4)cs3)nc2C)cc1 [Compound 10n] , Tub. enzyme inhibition assay %inhibition: 2.01

So, Cc1ccc(-c2csc(NC(=O)CSc3nc(C)c(C(=O)/C=C/c4ccc(F)cc4)s3)n2)cc1 [Compound 10m] ? Its Tub. enzyme inhibition assay %inhibition was 5.97

// Tub. enzyme inhibition assay %inhibition lookup, molecule = Cc1ccc(-c2csc(NC(=O)CSc3nc(C)c(C(=O)/C=C/c4ccc(Cl)cc4)s3)n2)cc1 [Compound 10l] , result: 1.85

The recorded Tub. enzyme inhibition assay %inhibition for COc1ccc(/C=C/C(=O)c2sc(SCC(=O)Nc3nc(-c4ccccc4)cs3)nc2C)cc1 [Compound 10e] is 2.57

Record Cc1nc(SCC(=O)Nc2nc(-c3ccc(Cl)cc3)cs2)sc1C(=O)/C=C/c1ccc(Cl)cc1 [Compound 10g] . Reported Tub. enzyme inhibition assay %inhibition: 0.65

* * *

test system: breast - MCF-7; test: Antiproliferative assay (MTT) MCF-7; settings: MCF-7, 3.125 µM
measure.name: Average of Relative viability of cells (%)
Please respond with the number in % and leave the unit unwritten.

For this compound ( Cc1nc(SCC(=O)Nc2nccs2)sc1C(=O)/C=C/c1ccc(F)cc1 [Compound 13c] ), measured Average of Relative viability of cells (%) is 96.3

Query Cc1nc(SCC(=O)Nc2nccs2)sc1C(=O)/C=C/c1ccc(Cl)cc1 [Compound 13b] yields Average of Relative viability of cells (%) of 83.5

Briefly, Average of Relative viability of cells (%) measured for Cc1ccc(-c2csc(NC(=O)CSc3nc(C)c(C(=O)/C=C/c4ccc(F)cc4)s3)n2)cc1 [Compound 10m] : 91.6

Noted for Cc1nc(SCC(=O)Nc2nc(-c3ccc(Cl)cc3)cs2)sc1C(=O)/C=C/c1ccc(F)cc1 [Compound 10h] : its Average of Relative viability of cells (%) reads 94.8

Briefly, Average of Relative viability of cells (%) measured for COc1ccc(/C=C/C(=O)c2sc(SCC(=O)Nc3nc(-c4ccc(C)cc4)cs3)nc2C)cc1 [Compound 10o] : 61.6

Average of Relative viability of cells (%) reported for this compound Cc1nc(SCC(=O)Nc2nc(-c3ccc(Cl)cc3)cs2)sc1C(=O)/C=C/c1ccccc1 [Compound 10f] : 84.7

Briefly, Average of Relative viability of cells (%) measured for Cc1ccc(/C=C/C(=O)c2sc(SCC(=O)Nc3nc(-c4ccccc4)cs3)nc2C)cc1 [Compound 10d] : 84.1

GET /value?item= Cc1ccc(/C=C/C(=O)c2sc(SCC(=O)Nc3nccs3)nc2C)cc1 [Compound 13d] &field=Average of Relative viability of cells (%) returns 71.2
